- Test system: HCC-2998 colon
- method_notes: NCI-60 one-dose screen, 48 h (100 = growth as untreated, 0 = no growth, -100 = all killed)
- measurement_conditions: 10 µM unless noted
- Method: Growth inhibition of the HCC-2998 human tumor cell line is measured as a screen for anti-cancer activity. Cells are grown in 96 well plates and exposed to the test compound for 48 hours. Compounds are tested at a single concentration, which is 10^-5 M for most compounds. The reported endpoint is percent growth (GI% or GIPRCNT), where numbers from 0 - 100% represent growth inhibition, and numbers from -100% - 0 represent cell death. For example, a value of 40 represents 60% growth inhibition. […]
About 83,000 compounds went through this panel and 20% of them were active in at least one assay; those are over-represented in the sample as a whole.
A collection of molecules and their measured growth

item_smiles: Cc1ccc(-c2cnc3sc4ccc(Cl)cc4n23)cc1
growth [%]: 105

item_smiles: C/C(=C\C(=N\N=C(N)N)c1ccc(Cl)cc1)c1ccc(Cl)cc1
growth [%]: -87.3

item_smiles: Oc1ccc(-c2cnc(-c3ccccc3)[nH]2)c(O)c1
growth [%]: 117

---

A collection of molecules and their measured growth
- Test system: SW-620 colon
- method_notes: NCI-60 one-dose screen, 48 h (100 = growth as untreated, 0 = no growth, -100 = all killed)
- measurement_conditions: 10 µM unless noted
About 83,000 compounds went through this panel and 20% of them were active in at least one assay; those are over-represented in the sample as a whole.

molecule: CCOC(=O)C(=CNc1ccccc1Cl)C(=O)OCC
growth [%]: 98.4
//
molecule: CS(=O)(=O)Nc1cc(-c2cc3ncc(C#N)c(Nc4ccc(Oc5ccccc5)c(Cl)c4)c3s2)cnc1Cl
growth [%]: 48
//
molecule: O=C(CSc1ccc(Cl)cc1)Nc1ccc(-c2nc3ccccc3s2)c(Cl)c1
growth [%]: 65.9
//
molecule: CC1=C(C(=O)Nc2ccc(F)cc2)C(c2ccccc2)C2=C(CC(C)(C)CC2=O)N1 (stereo not given)
growth [%]: 89.7
//
molecule: CCc1ccc(-c2ccc(NC3CCCCCC3)nn2)cc1S(N)(=O)=O
growth [%]: 98.8
//
molecule: COc1ccc(-c2n[nH]nc2-c2cc(OC)c3c(c2)OCO3)cc1
growth [%]: 22.6
//
molecule: CCCC(CCC)NCC(O)c1cc(-c2ccc(C(F)(F)F)cc2)nc(C(F)(F)F)c1 (stereo not given)
growth [%]: -56.6
//
molecule: COc1cc(C2Nc3ccccc3S2)cc(CN2CCOCC2)c1O (stereo not given)
growth [%]: 50.7
//
molecule: CC[C@H](Nc1nc(N)nc(N)c1Cl)c1nc2cccc(NCc3ccc(C(=O)NO)cc3)c2c(=O)n1-c1ccccc1
growth [%]: 19.9
//
molecule: CC(C)N1CCN(c2ccncc2S(=O)(=O)N2CCN(C)CC2)CC1
growth [%]: 105

---

- Test system: MALME-3M melanoma
- method_notes: NCI-60 one-dose screen, 48 h (100 = growth as untreated, 0 = no growth, -100 = all killed)
- measurement_conditions: 10 µM unless noted
Compounds without any hit were thinned out: in the full panel of roughly 83,000, 20% have a hit.
observation_type: growth (%)

molecule: CCCN(CCC)CC(O)COc1ccccc1C(=O)Nc1ccccc1 (stereo not given)
measurement_target: MALME-3M melanoma
number: 62

molecule: CCN(CC)Cc1cc(Nc2nc(NC3CCC(N(C)C)CC3)c3ccccc3n2)ccc1OC (stereo not given)
measurement_target: MALME-3M melanoma
number: 69.1

molecule: O=C(Nc1ccc(Oc2ccc(NC(=O)Nc3ccccc3Cl)cc2)cc1)Nc1ccccc1Cl
measurement_target: MALME-3M melanoma
number: 66.7

molecule: COc1cc2nccc(Oc3ccc(NC(=O)C4(C(=O)Nc5c(F)cc(F)cc5F)CC4)cc3)c2cc1Oc1ccc(N)cn1
measurement_target: MALME-3M melanoma
number: 59

molecule: Cc1nc2ccc(Nc3nc(N4CCOCC4)nc(N4CCN(C)CC4)n3)cc2n1Cc1ccccc1
measurement_target: MALME-3M melanoma
number: 65.7

molecule: CN(C)c1ccc(Nc2c3ccccc3nc3ccccc23)cc1
measurement_target: MALME-3M melanoma
number: -14

molecule: COc1ccc(-c2nsc3c2NC(=O)CC3c2ccc3c(c2)OCO3)cc1 (stereo not given)
measurement_target: MALME-3M melanoma
number: -1.91

molecule: O=[N+]([O-])c1cccc(N=C(Nc2cccc([N+](=O)[O-])c2)c2ccccc2)c1
measurement_target: MALME-3M melanoma
number: 79.7

molecule: CCN1CCN(Cc2ccc(NC(=O)c3nc4ccc5[nH]ncc5c4c4c3CCCC4)cc2C(F)(F)F)CC1
measurement_target: MALME-3M melanoma
number: -79.3

molecule: O=C(CI)NCCNc1cccc2c(S(=O)(=O)O)cccc12
measurement_target: MALME-3M melanoma
number: 103

---

- Tested on: 786-0 renal
- method_notes: NCI-60 one-dose screen, 48 h
- measurement_conditions: 10 µM unless noted
The panel holds about 83,000 compounds, 20% with a hit somewhere; the sample as a whole holds those more often. Activity calls are given as the source filed them. The calls were made as follows: active = growth percent below 10; inactive = the rest.
Labels: True for active, False for inactive

compound: NNC(=O)Cc1ccccc1
qualitative_label: False

compound: Brc1ccccc1Cn1c(-c2cncs2)nc2ccccc21
qualitative_label: False

compound: O=C(Cn1nncc1CN1C(=O)CSC1=O)Nc1ccc(F)cc1
qualitative_label: False

compound: CN(C)c1ccc(Nc2c3ccccc3nc3ccccc23)cc1
qualitative_label: True

compound: [O-]/[N+](=C\c1ccccc1)CC1(O)CCCCC1
qualitative_label: False

compound: CC(C)c1ccc(Cn2ccc3c4c(N)nc(NC5CC5)nc4ccc32)cc1
qualitative_label: True

compound: CCOC(=O)C1=C(C)NC(SCc2nnc(-c3ccc(Cl)cc3)o2)=NC1c1ccc(Br)cc1 (stereo unspecified)
qualitative_label: False

compound: Oc1[nH]c2ccc(Cl)cc2c1/C=c1/ccc2c(c1)N=C(c1ccc(F)cc1)N=2
qualitative_label: False

compound: O=C1/C(=C\c2cccn2C(=O)c2ccccc2)c2ccccc2N1c1c(Cl)cccc1Cl
qualitative_label: False

compound: CN=C1C=C/C(=N/N=c2/ccn(O)cc2C)C=C1C
qualitative_label: False

compound: CCCCN(CCCC)CCC(=O)c1ccc(OC)c2ccccc12
qualitative_label: False

compound: CCc1ccc(Nc2ncnc3c2cnn3-c2cccc(Br)c2)cc1
qualitative_label: False

compound: Cc1ccc(NC(=O)Cn2nncc2CN2C(=O)CSC2=O)cc1C
qualitative_label: False

compound: NC(N)=N/N=C/c1ccccc1
qualitative_label: False

compound: COc1ccc2c(c1)CCCC21C(=O)Nc2ccccc21 (stereo unspecified)
qualitative_label: False

compound: CCOC(=O)c1ccc(NCCC(=O)O)cc1
qualitative_label: False

compound: CC(C)NC(=O)OCC#CCOC(=O)NC(C)C
qualitative_label: False

compound: CSC(=S)N/N=C(\C)c1ccccn1
qualitative_label: False

compound: C=C(C)c1ccc(/C=N/NC(N)=S)cc1
qualitative_label: False

compound: COc1ccc(-c2cn(-c3cccc(C(=O)/C=C/c4ccc(O)c(OC)c4)c3)c(=O)[nH]2)cc1
qualitative_label: False

compound: C1=C\CCCCN2CC[C@H]3[C@H](CCCC/C=C\CCCN4C[C@@H](CCCCC/1)C[C@@H]3C4)C2
qualitative_label: False

---

- Test system: SNB-19 CNS
- method_notes: NCI-60 one-dose screen, 48 h (100 = growth as untreated, 0 = no growth, -100 = all killed)
- measurement_conditions: 10 µM unless noted
The panel holds about 83,000 compounds, 20% with a hit somewhere; the sample as a whole holds those more often.
A collection of compounds and their measured growth
observation_type: growth (%)

compound: CNC(=O)c1cc(Oc2ccc(NC(=O)c3nc(S(C)(=O)=O)sc3-c3ccc(F)cc3)cc2)ccn1
number: 84.4
--
compound: COc1ccc(C2C3=C(COC3=O)N(CCO)c3cc(OC)c(OC)cc32)cc1 (centres undefined)
number: 109
--
compound: CC[C@H](Nc1nc(C)nc(N)c1C#N)c1nc2cccc(NCc3ccc(C(=O)NO)cc3)c2c(=O)n1-c1ccccc1
number: 17.6
--
compound: CCCCn1c(C)nc2ccc(Nc3nc(Cl)nc4nc[nH]c34)cc21
number: 90.5
--
compound: CC1=NN(c2cccc(S(N)(=O)=O)c2)C(=O)C1
number: 90.4
--
compound: CCCCCCCCCCCCCCCCCC1=NC(C)(C)CN1C(C)(C)CO
number: 37.2
--
compound: O=C(Nc1ccccc1)C(CCCCN1C(=O)c2ccccc2C1=O)N1C(=O)c2ccccc2C1=O (centres undefined)
number: 101
--
compound: O=C(Oc1c(Cl)c(Cl)c(Cl)c(Cl)c1Cl)C1CCCN1C(=O)OCc1ccccc1 (centres undefined)
number: 26.2
--
compound: COc1ccc(/C=C(/C(=O)N2CCN(c3ccccc3)CC2)c2cc(OC)c(OC)c(OC)c2)cc1N
number: 24.5
--
compound: COC(=O)c1cc2oc(/C=N/NC(=O)c3cc4oc(-c5cccc(C(F)(F)F)c5)cc4[nH]3)cc2n1Cc1ccccc1
number: 112
--
compound: CN1CCN(c2ccc(N3Cc4ccccc4OC4=C3C(=O)c3c(O)ccc(O)c3C4=O)cn2)CC1
number: 11
--
compound: COc1cc(-c2csc(NC(=O)Nc3cccc(C(F)(F)F)c3)n2)cc(OC)c1OC
number: 46.1
--
compound: CC1CN(CCCOC(=O)Nc2ccc(Cl)cc2)CCN1C(C)(C)C (centres undefined)
number: 98.1
--
compound: Fc1cnccc1-c1nc2ccc3[nH]ncc3c2c2c1CCCC2
number: 44.2

Data credit: PubChem BioAssay (NCI)
